Test system: Candida albicans
Assay: Antifungal activity against Candida albicans after 24 hrs by broth microdilution method
Assay type: functional
Provide the recorded MIC for the entries that follow.

Recorded result, CCO/N=[N+](\[O-])N1CCN(c2ccccc2)CC1 , MIC: > 2000 µM

compound [O-]/[N+](=N\O)N1CCN(c2ccccc2)CC1 , MIC observed: > 2000 µM

Recorded MIC (compound O=[N+]([O-])OCCN1CCN(c2ccc(OC[C@H]3CO[C@](Cn4ccnc4)(c4ccc(Cl)cc4Cl)O3)cc2)CC1 ): 12.5 µM

// field: MIC; key: COCO/N=[N+](\[O-])N1CCN(c2ccccc2)CC1 ; value = > 2000 µM

// sample c1ccc(N2CCNCC2)cc1 , its MIC was > 2000 µM

What the record says about O=C(CO[N+](=O)[O-])N1CCN(c2ccc(OC[C@H]3CO[C@](Cn4ccnc4)(c4ccc(Cl)cc4Cl)O3)cc2)CC1 : MIC is 25 µM

// CC(=O)N1CCN(c2ccc(OCC3COC(Cn4ccnc4)(c4ccc(Cl)cc4Cl)O3)cc2)CC1 (centres undefined) : MIC value = 25 µM

The compound listed as CC(C)(CO[N+](=O)[O-])C(=O)N1CCN(c2ccc(OC[C@H]3CO[C@](Cn4ccnc4)(c4ccc(Cl)cc4Cl)O3)cc2)CC1 has a reported MIC of 6.25 µM

# MIC (compound: O=C(CO/N=[N+](\[O-])N1CCCC1)N1CCN(c2ccccc2)CC1 ) is > 2000 µM
